ASSAY CONTEXT: in cyclohexane, 313.15 K
OBSERVABLE: solubility (mole fraction)
API doc: respond with a numeric literal and nothing else, no unit.

Report solubility (mole fraction) for `Cc1c([N+](=O)[O-])c(C)c([N+](=O)[O-])c(C(C)(C)C)c1[N+](=O)[O-]`
0.0229

----------
ASSAY CONTEXT: in ethanol, 303.15 K
OBSERVABLE: solubility (mole fraction)

Report solubility (mole fraction) for `Cc1c([N+](=O)[O-])c(C)c([N+](=O)[O-])c(C(C)(C)C)c1[N+](=O)[O-]`
0.00458

----------
ASSAY CONTEXT: in n-heptane, 298.15 K
OBSERVABLE: solubility (mole fraction)
API doc: respond with a numeric literal and nothing else, no unit.

Report solubility (mole fraction) for `Cc1c([N+](=O)[O-])c(C)c([N+](=O)[O-])c(C(C)(C)C)c1[N+](=O)[O-]`
0.00609
